B1: DLC1 (parent)
chain: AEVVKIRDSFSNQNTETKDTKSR

Variants of: B1
Assay: protein stability index of a GFP-peptide fusion (GPS, HEK-293T) (PSI 1-6); higher = more stable;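 also: lentivirally expressed fusions sorted by FACS into six bins by GFP to DsRed ratio, PSI derived from sequencing read proportions per bin multiplied by bin number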
Conditions: c terminus: native
Reported protein stability index values for the following variants.
Give the figure by itself; no unit, no explanation.

Please review the entries below; each comes with its answer.
> print(dat)
   mutant.code  assay.value
1         E16K         3.12
2         N12F         1.81
3          V3Y          1.7
4          V4R          2.3
5         K21P         3.51

Q: Entry `I6H` : reported protein stability index = ?
Result: 2.42

Q: Also need `N14H` , thanks.
Result: 2.46

Q: Also need `V3K` , thanks.
Result: 4.55

Q: Also need `T17H` , thanks.
Result: 1.73
